List of CC50 at 48 h values.
- assay summary: cytotoxicity assay (MTT)
- Format: cell-based
- measurement context: human, huh-7/lunet cells, Lunet/HuH7 cells, 2 days of incubation, mean of duplicates

{"columns": ["compound", "CC50 at 48 h"],
 "data": [
  ["Cn1c(=O)c(-c2ccc(F)cc2)cc2c(N3CCCC3)nc(N)nc21", "≥ 25 µM"],
  ["O=C1Nc2nc(Nc3ccccc3)nc(On3nnc4ccccc43)c2CC1c1ccc(F)cc1 (stereo not shown)", "10 to 25 µM"],
  ["O=C1Nc2nc(Oc3ccccc3)nc(On3nnc4ccccc43)c2CC1c1ccc(F)cc1 (stereo not shown)", "≥ 25 µM"],
  ["Cn1c(=O)c(-c2c(Cl)cccc2Cl)cc2c(N)nc(N)nc21", "≥ 25 µM"]
]}

====

- Test system: subgenomic HCV genotype 1b replicon, I389/NS3-3'/ LucUbiNeo-ET
- assay summary: in vitro antiviral activity: luciferase assay in LucUbiNeo-ET HCV replicon cells
- Format: cell-based
- measurement context: Hepatitis C virus, 48 h, 2 days of incubation, luciferase readout, mean of duplicates

{"columns": ["compound", "EC50"],
 "data": [
  ["O=c1[nH]c2nc(Nc3ccccc3)[nH]c(=O)c2cc1-c1ccc(F)cc1", "< 1 µM"],
  ["Cn1c(=O)c(-c2c(F)cccc2C(F)(F)F)cc2c(N)nc(Nc3ccccc3)nc21", "1 to 5 µM"],
  ["O=C1Nc2nc(Nc3ccccc3)nc(On3nnc4ccccc43)c2CC1c1ccc(F)cc1 (centres unmarked)", "1 to 5 µM"],
  ["CCCn1c(=O)c(-c2c(Cl)cccc2Cl)cc2c(N)nc(Nc3ccccc3)nc21", "1 to 5 µM"],
  ["Nc1nc(Nc2ccccc2)nc2[nH]c(=O)c(-c3c(Br)cccc3Br)cc12", "5 to 22 µM"],
  ["O=C1Nc2nc(Oc3ccccc3)nc(On3nnc4ccccc43)c2CC1c1ccc(F)cc1 (centres unmarked)", "5 to 22 µM"],
  ["Cn1c(=O)c(-c2c(Cl)cccc2Cl)cc2cnc(Nc3ccccc3)nc21", "< 1 µM"],
  ["O=C1Nc2nc(Nc3ccccc3)[nH]c(=O)c2CC1c1ccccc1 (centres unmarked)", "1 to 5 µM"],
  ["CCn1c(=O)c(-c2c(Cl)cccc2Cl)cc2c(N)nc(Nc3ccccc3)nc21", "1 to 5 µM"],
  ["COc1ccc(Nc2nc3[nH]c(=O)c(-c4ccc(F)cc4)cc3c(=O)[nH]2)cc1", "5 to 22 µM"],
  ["Cn1c(=O)c(-c2c(Cl)cccc2Cl)cc2c(N)nc(Nc3ccc(Br)cc3)nc21", "< 1 µM"],
  ["CCCOCCNc1nc(Oc2ccccc2)nc2[nH]c(=O)c(-c3ccc(F)cc3)cc12", "1 to 5 µM"],
  ["CCCOCCNc1nc(N)nc2[nH]c(=O)c(-c3ccc(F)cc3)cc12", "1 to 5 µM"],
  ["CN1CCN(c2ccc(Nc3nc(N)c4cc(-c5c(Cl)cccc5Cl)c(=O)n(C)c4n3)cc2)CC1", "< 1 µM"],
  ["O=C1Nc2nc(Nc3ccccc3)[nH]c(=O)c2CC1c1cccc2ccccc12 (centres unmarked)", "5 to 22 µM"],
  ["CCCCn1c(=O)c(-c2c(Cl)cccc2Cl)cc2c(N)nc(Nc3ccccc3)nc21", "5 to 22 µM"],
  ["Cn1c(=O)c(-c2c(Cl)cccc2Cl)cc2c(N)nc(N)nc21", "5 to 22 µM"],
  ["COCCOc1nc(N)nc2c1CC(c1c(Cl)cccc1Cl)C(=O)N2 (centres unmarked)", "5 to 22 µM"],
  ["Cn1c(=O)c(-c2c(Br)cccc2Br)cc2c(N)nc(Nc3ccccc3)nc21", "< 1 µM"],
  ["COc1nc(N)nc2c1CC(c1c(Cl)cccc1Cl)C(=O)N2C (centres unmarked)", "5 to 22 µM"],
  ["CCCOCCNc1nc(Nc2ccccc2)nc2c1CC(c1c(Cl)cccc1Cl)C(=O)N2 (centres unmarked)", "5 to 22 µM"],
  ["CC(C)Cn1c(=O)c(-c2c(Cl)cccc2Cl)cc2c(N)nc(Nc3ccccc3)nc21", "< 1 µM"],
  ["O=C1Nc2nc(NCc3ccccc3)[nH]c(=O)c2CC1c1c(Cl)cccc1Cl (centres unmarked)", "5 to 22 µM"],
  ["COCCn1c(=O)c(-c2c(Cl)cccc2Cl)cc2c(N)nc(Nc3ccccc3)nc21", "< 1 µM"],
  ["CCCOCCOc1nc(N)nc2c1cc(-c1c(Cl)cccc1Cl)c(=O)n2C", "5 to 22 µM"],
  ["Nc1nc(Nc2ccccc2)nc2[nH]c(=O)c(-c3ccccc3)cc12", "< 1 µM"],
  ["Cn1c(=O)c(-c2ccccc2)cc2c(N)nc(Nc3ccccc3)nc21", "< 1 µM"],
  ["Nc1nc(Nc2ccccc2)nc2[nH]c(=O)c(-c3c(F)cccc3F)cc12", "5 to 22 µM"],
  ["O=C1Nc2nc(Nc3ccccc3)nc(On3nnc4ccccc43)c2CC1c1ccc(Cl)cc1Cl (centres unmarked)", "1 to 5 µM"]
]}
